Each entry below carries its recorded pIC50.
Biological target: indoleamine 2,3-dioxygenase (IDO) (Homo sapiens, UniProt P14902)
Sequence (P14902 whole entry): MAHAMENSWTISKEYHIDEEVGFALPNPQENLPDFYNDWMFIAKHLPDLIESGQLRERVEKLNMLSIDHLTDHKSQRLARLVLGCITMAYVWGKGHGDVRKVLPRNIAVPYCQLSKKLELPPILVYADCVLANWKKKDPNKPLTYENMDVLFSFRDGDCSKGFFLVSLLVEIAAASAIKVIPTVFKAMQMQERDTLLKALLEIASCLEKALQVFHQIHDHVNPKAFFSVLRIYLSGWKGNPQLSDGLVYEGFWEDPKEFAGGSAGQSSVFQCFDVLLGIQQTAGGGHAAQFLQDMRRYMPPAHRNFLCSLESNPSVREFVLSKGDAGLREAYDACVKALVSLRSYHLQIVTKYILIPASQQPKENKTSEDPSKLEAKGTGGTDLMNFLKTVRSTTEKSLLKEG
Experiment: HeLa cell-based indoleamine 2,3-dioxygenase (IDO) assay (kynurenine production)
Details: HeLa cells, IFNγ 25 ng/mL, 48 hour incubation, absorbance at 480 nm
Please express pIC50 as -log10 of the molar concentration.

The following compounds have reported results that may help.
Fc1ccc2nccc(C3CCC(C(CC(F)(F)F)c4nc5ccc(Cl)cc5[nH]4)CC3)c2c1 (racemic)    8.12
CCC(c1nc2ncc(Cl)cc2[nH]1)[C@H]1CC[C@@H](c2ccnc(F)c2C)CC1 (mixture of isomers) [Example 24]    8.12
CCOCC(c1nc2ccc(Cl)cc2[nH]1)[C@H]1CC[C@@H](c2ccnc(F)c2C)CC1 (single isomer, unassigned) [Example 25-1]    7.99
CCC(c1nc2ccc(Cl)cc2[nH]1)[C@H]1CC[C@H](Oc2ccnc3ccccc23)CC1 (single isomer, unassigned) [Example 13-1]    8.24
CCC(c1nc2ncc(Cl)cc2[nH]1)[C@H]1CC[C@@H](c2ccnc3ccc(C(F)(F)F)cc32)CC1 (single isomer, unassigned) [Example 22-2]    7.00
C[C@@H](c1nc2ncc(Cl)cc2[nH]1)[C@H]1CC[C@@H](c2ccnc3ccc(F)cc32)CC1    8.35

Let's switch to this compound now.
# input Endpoint output: pIC50 of CCOCC(c1nc2ccc(Cl)cc2[nH]1)[C@H]1CC[C@@H](c2ccnc(F)c2C)CC1 (mixture of isomers) [Example 25] . Value?
# output 7.35
